Tested on: MCF7
Test description: Antiproliferative activity against human MCF7 cells after 24 hrs by MTT assay
Type: functional, cell-based
Setup conditions: MCF7, 24 h
Assay endpoint: IC50

>  <Compound>
CCS(=O)(=O)c1nnc(COc2cc(C)c3c(C)cc(=O)oc3c2)o1

>  <Target system>
MCF7

>  <Measured value>
> 100 µM

$$$$
>  <Compound>
CSc1nnc(COc2cc(C)c3c(C)cc(=O)oc3c2)o1

>  <Target system>
MCF7

>  <Measured value>
> 100 µM

$$$$
>  <Compound>
CCSc1nnc(COc2cc(C)c3c(C)cc(=O)oc3c2)o1

>  <Target system>
MCF7

>  <Measured value>
> 100 µM

$$$$
>  <Compound>
CC/C(=C(\c1ccccc1)c1ccc(OCCN(C)C)cc1)c1ccccc1 [TAMOXIFEN]

>  <Target system>
MCF7

>  <Measured value>
7.09 µM

$$$$
>  <Compound>
Cc1cc(OCc2nnc(S(=O)(=O)Cc3cccc(F)c3)o2)cc2oc(=O)cc(C)c12

>  <Target system>
MCF7

>  <Measured value>
70.4 µM

$$$$
>  <Compound>
Cc1cc(OCc2nnc(SCc3cccc(F)c3)o2)cc2oc(=O)cc(C)c12

>  <Target system>
MCF7

>  <Measured value>
26 µM

$$$$
>  <Compound>
CCCS(=O)(=O)c1nnc(COc2cc(C)c3c(C)cc(=O)oc3c2)o1

>  <Target system>
MCF7

>  <Measured value>
> 100 µM

$$$$
>  <Compound>
CCCCCSc1nnc(COc2cc(C)c3c(C)cc(=O)oc3c2)o1

>  <Target system>
MCF7

>  <Measured value>
> 100 µM

$$$$
>  <Compound>
Cc1cc(OCc2nnc(SCc3ccc(Cl)cc3Cl)o2)cc2oc(=O)cc(C)c12

>  <Target system>
MCF7

>  <Measured value>
< 5 µM

$$$$
>  <Compound>
Cc1cc(OCc2nnc(SCc3ccc(F)c(F)c3)o2)cc2oc(=O)cc(C)c12

>  <Target system>
MCF7

>  <Measured value>
33.3 µM

$$$$
>  <Compound>
Cc1cc(OCc2nnc(S(=O)(=O)Cc3ccc(F)c(F)c3)o2)cc2oc(=O)cc(C)c12

>  <Target system>
MCF7

>  <Measured value>
55.2 µM

$$$$
>  <Compound>
CCCCSc1nnc(COc2cc(C)c3c(C)cc(=O)oc3c2)o1

>  <Target system>
MCF7

>  <Measured value>
> 100 µM

$$$$
>  <Compound>
Cc1cc(OCc2nnc(S(=O)(=O)Cc3ccccc3)o2)cc2oc(=O)cc(C)c12

>  <Target system>
MCF7

>  <Measured value>
38.6 µM

$$$$
>  <Compound>
CCCCCCS(=O)(=O)c1nnc(COc2cc(C)c3c(C)cc(=O)oc3c2)o1

>  <Target system>
MCF7

>  <Measured value>
> 100 µM

$$$$
>  <Compound>
Cc1cc(OCc2nnc(SCc3ccccc3)o2)cc2oc(=O)cc(C)c12

>  <Target system>
MCF7

>  <Measured value>
> 100 µM

$$$$
>  <Compound>
CCCSc1nnc(COc2cc(C)c3c(C)cc(=O)oc3c2)o1

>  <Target system>
MCF7

>  <Measured value>
> 100 µM

$$$$
>  <Compound>
CCCCCCSc1nnc(COc2cc(C)c3c(C)cc(=O)oc3c2)o1

>  <Target system>
MCF7

>  <Measured value>
> 100 µM

$$$$
